# measurementDescription: Metabolic stability in simulated intestinal fluid (SIF), pH 6.8, with or without pancreatin
# Type: in vitro ADME
# experimentalParameters: −Pancreatin, 5 μM, 37° C., 0 min
# Procedure: Metabolic Stability in SIF and SGF (Simulated Intestinal and Gastric Fluid) Buffer 3=SIF without enzyme Buffer 4=SIF with 1% pancreatin SIF was prepared freshly with 8.7 mM NaOH, 28.65 mM NaH2PO4, 105.85 mM NaCl, with a final pH of 6.8. SGF was prepared freshly with 34.2 mM NaCl, with a final pH of 1.2. […] Compounds were dissolved as 1.5 mM DMSO stocks. […] The extent of metabolism was calculated as the disappearance of the test compound, compared to the 0-min control reaction incubations. […]
Where a SMILES comes first, the peptide text is derived from it. [ ]: non-standard residue; d: D form. The star is where a group is joined. ξ: configuration not given here. pY = N[CH](Cc1ccc(OP(=O)(O)O)cc1)C(=O)O; ξpY = NC(Cc1ccc(OP(=O)(O)O)cc1)C(=O)O; Ile(3ξ) = CCC(C)[C@H](N)C(=O)O; Hexanoyl = CCCCCC(=O)*; Ahx = NCCCCCC(=O)O
Readings of SIF Stability (pH 6.8) 0 min for the listed compounds
endpoint: SIF Stability (pH 6.8) 0 min (%)

>  <compound>
CCCCCC(=O)NC(Cc1ccc(OP(=O)(O)O)cc1)C(=O)N[C@H](C(=O)NCCCCCC(N)=O)C(C)CC.N.N (stereo partly drawn) [Compound A29] (Hexanoyl-[ξpY]-[Ile(3ξ)]-[Ahx]-NH2)

>  <valueReported>
100

$$$$
>  <compound>
CCCCCC(=O)NC(Cc1ccc(OP(=O)([O-])O)cc1)C(=O)NC(C(=O)NCCCCCC(N)=O)C(C)CC.[Na+] (stereo not drawn) [Compound A30] (Hexanoyl-[pY]-Ile-[Ahx]-NH2; configuration not given here)

>  <valueReported>
100

$$$$
>  <compound>
CCCCCC(=O)N[C@@H](Cc1ccc(O)cc1)C(=O)N[C@H](C(=O)NCCCCCC(N)=O)[C@@H](C)CC [Base Structure, reference compound] (Hexanoyl-Tyr-Ile-[Ahx]-NH2)

>  <valueReported>
100

$$$$
>  <compound>
CCCCCC(=O)NC(Cc1ccc(OP(=O)(OCCN(C)C)OCCN(C)C)cc1)C(=O)NC(C(=O)NCCCCCC(N)=O)C(C)CC (stereo not drawn)

>  <valueReported>
100

$$$$
>  <compound>
CCCCCC(=O)NC(Cc1ccc(OC(=O)N2CCN(C)CC2)cc1)C(=O)NC(C(=O)NCCCCCC(N)=O)C(C)CC (stereo not drawn)

>  <valueReported>
100

$$$$
>  <compound>
CCCCCC(=O)N1C(Cc2ccc(OP(=O)([O-])[O-])cc2)C(=O)N(C(C(=O)NCCCCCC(N)=O)C(C)CC)C12CCN(C)CC2.[Na+].[Na+] (stereo not drawn)

>  <valueReported>
100

$$$$
